- experiment.notes: IUF_NPC2-5_viability_120hr: Viability Assessment at 120 hours in the Leibniz Research Institute for Environmental Medicine (IUF) Neural Progenitor Cell Migration and Differentiation Assay (NPC2-5) (AID 2284312)
Active and inactive are the calls of the source. Rule for the calls: active = hit-call score of the fitted dose curve at least 0.9, where 1 is the maximum; inactive = score below 0.9.
property.label: outcome

Solved cases (5 shown):
{"columns": ["molecule", "outcome"],
 "data": [
  ["O=S1(=O)OCC2C(CO1)C1(Cl)C(Cl)=C(Cl)C2(Cl)C1(Cl)Cl (stereo unspecified)", "inactive"],
  ["O=P(Oc1ccccc1)(Oc1ccccc1)Oc1ccccc1", "inactive"],
  ["CCCCOCCOP(=O)(OCCOCCCC)OCCOCCCC", "inactive"],
  ["O=C(O)C(F)(OC(F)(F)C(F)(F)C(F)(F)F)C(F)(F)F (stereo unspecified)", "inactive"],
  ["CC(C)(C)c1ccccc1OP(=O)(Oc1ccccc1)Oc1ccccc1", "inactive"]
]}

Please turn your attention to the following entry.
query: Item CCCCC(CC)COP(=O)(Oc1ccccc1)Oc1ccccc1 (stereo unspecified) has what recorded outcome?
result: inactive
